# PDI listing for each entry below
- assay explanation: Delivery vehicle size and polydispersity by dynamic light scattering
- Assay type: physicochemical
- conditions: DLS in PBS; peptoid:DSPC:Cholesterol:DMG-PEG2000 weight ratio 20:1.79:7.16:1.84, mRNA
Non-standard residues stand in square brackets, D forms with d. Residues, ends and D or L forms follow the SMILES beside them. *: point of attachment. Gly(N-(3-decanoyloxypropyl)) = CCCCCCCCCC(=O)OCCCNCC(=O)O; N(3-lauroyloxypropyl)Gly = CCCCCCCCCCCC(=O)OCCCNCC(=O)O; Gly(N-3-morpholinopropyl) = O=C(O)CNCCCN1CCOCC1; N(2-ethylhexyl)Gly = CCCCC(CC)CNCC(=O)O; N(CH(CH2OH)2)Gly = O=C(O)CNC(CO)CO; NHexGly = CCCCCCNCC(=O)O; For = O=C*
Would you mind answering with just the numeric figure?

Check out these entries, answers already filled in.
compound	PDI
CCCCCCCCCCCC(=O)OCCCN(CC(=O)N(CC(=O)N(CC(=O)N(CCCOC(=O)CCCCCCCCCCC)CC(=O)N(CC(=O)N(CC(N)=O)CC(CC)CCCC)CC(CC)CCCC)CC(CC)CCCC)CC(CC)CCCC)C(=O)CNC(CO)CO (stereo not shown) [Compound 51] (H-[N(CH(CH2OH)2)Gly][N(3-lauroyloxypropyl)Gly][N(2-ethylhexyl)Gly][N(2-ethylhexyl)Gly][N(3-lauroyloxypropyl)Gly][N(2-ethylhexyl)Gly][N(2-ethylhexyl)Gly]-NH2)	0.128
CCCCCCCCCCCC(=O)OCCCN(CC(=O)N(CC(=O)N(CCCCCC)CC(=O)N(CCCOC(=O)CCCCCCCCCCC)CC(=O)N(CC(=O)N(CCCCCC)CC(N)=O)CC(CC)CCCC)CC(CC)CCCC)C(=O)CN(C=O)CCCN1CCOCC1 (stereo not shown) [Compound 70] (For-[Gly(N-3-morpholinopropyl)][N(3-lauroyloxypropyl)Gly][N(2-ethylhexyl)Gly][NHexGly][N(3-lauroyloxypropyl)Gly][N(2-ethylhexyl)Gly][NHexGly]-NH2)	0.082
CCCCCCCCCC(=O)OCCCN(CC(=O)N(CCCOC(=O)CCCCCCCCC)CC(=O)N(CCCCCC)CC(=O)N(CCCOC(=O)CCCCCCCCC)CC(=O)N(CCCOC(=O)CCCCCCCCC)CC(=O)N(CCCCCC)CC(N)=O)C(=O)CN(C=O)CCCN1CCOCC1 [Compound 108] (For-[Gly(N-3-morpholinopropyl)][Gly(N-(3-decanoyloxypropyl))][Gly(N-(3-decanoyloxypropyl))][NHexGly][Gly(N-(3-decanoyloxypropyl))][Gly(N-(3-decanoyloxypropyl))][NHexGly]-NH2)	0.263

Please find the next compound below.
Can you look up the measured PDI of CCCCCCCCCCCC(=O)OCCCN(CC(=O)N(CC(N)=O)CC(CC)CCCC)C(=O)CN(CCCCCC)C(=O)CN(CC(CC)CCCC)C(=O)CN(CCCOC(=O)CCCCCCCCCCC)C(=O)CN(CCCCCC)C(=O)CNC(CO)CO (stereo not shown) [Compound 54] (H-[N(CH(CH2OH)2)Gly][NHexGly][N(3-lauroyloxypropyl)Gly][N(2-ethylhexyl)Gly][NHexGly][N(3-lauroyloxypropyl)Gly][N(2-ethylhexyl)Gly]-NH2) for me?
0.141

* * *

- assay explanation: Peptoid quantity remaining in liver by HPLC-TOF mass spectrometry; further: time not given here
- Assay type: in vivo
- conditions: liver homogenate
Starred links: 1 amine or outer side, 2 acyl side, 3 side chain; linkers in the order of their positions; H or OH if unused. Non-standard residues stand in square brackets, D forms with d. Residues, ends and D or L forms follow the SMILES beside them. Gly(N-(3-decanoyloxypropyl)) = CCCCCCCCCC(=O)OCCCNCC(=O)O; N(3-lauroyloxypropyl)Gly = CCCCCCCCCCCC(=O)OCCCNCC(=O)O; N(2-decanoyloxyethyl)Gly = CCCCCCCCCC(=O)OCCNCC(=O)O; Gly(N-(CH2)3O-octanoyl) = CCCCCCCC(=O)OCCCNCC(=O)O; N(3-imidazol-1-ylpropyl)Gly = O=C(O)CNCCCn1ccnc1; N(2-ethylhexyl)Gly = CCCCC(CC)CNCC(=O)O; X2 = CCCCCCC(CCCC)CN(CC(=O)[*:2])[*:1]; N(CH(CH2OH)2)Gly = O=C(O)CNC(CO)CO
value type: % of injected dose remaining in liver (%)
Write down the numeric answer in % and omit the unit.

Check out these entries, answers already filled in.
molecule	value type	readout number
CCCCCCCC(=O)OCCCN(CC(=O)N(CC(=O)N(CC(=O)N(CCCOC(=O)CCCCCCC)CC(=O)N(CC(N)=O)CC(CCCC)CCCCCC)CC(CC)CCCC)CC(CCCC)CCCCCC)C(=O)CN(CC(CC)CCCC)C(=O)CNC(CO)CO (stereo not shown) [Compound 104] (H-[N(CH(CH2OH)2)Gly][N(2-ethylhexyl)Gly][Gly(N-(CH2)3O-octanoyl)][X2][N(2-ethylhexyl)Gly][Gly(N-(CH2)3O-octanoyl)][X2]-NH2)	% of injected dose remaining in liver	7.45
CCCCCCCCCC(=O)OCCN(CC(N)=O)C(=O)CN(CC(CC)CCCC)C(=O)CN(CCOC(=O)CCCCCCCCC)C(=O)CN(CCOC(=O)CCCCCCCCC)C(=O)CN(CC(CC)CCCC)C(=O)CN(CCOC(=O)CCCCCCCCC)C(=O)CNC(CO)CO (stereo not shown) [Compound 56] (H-[N(CH(CH2OH)2)Gly][N(2-decanoyloxyethyl)Gly][N(2-ethylhexyl)Gly][N(2-decanoyloxyethyl)Gly][N(2-decanoyloxyethyl)Gly][N(2-ethylhexyl)Gly][N(2-decanoyloxyethyl)Gly]-NH2)	% of injected dose remaining in liver	24.83
CCCCCCCCCC(=O)OCCCN(CC(=O)N(CC(=O)N(CC(=O)N(CCCOC(=O)CCCCCCCCC)CC(=O)N(CC(N)=O)CC(CC)CCCC)CC(CC)CCCC)CC(CC)CCCC)C(=O)CN(CC(CC)CCCC)C(=O)CNCCCn1ccnc1 (stereo not shown) [Compound 107] (H-[N(3-imidazol-1-ylpropyl)Gly][N(2-ethylhexyl)Gly][Gly(N-(3-decanoyloxypropyl))][N(2-ethylhexyl)Gly][N(2-ethylhexyl)Gly][Gly(N-(3-decanoyloxypropyl))][N(2-ethylhexyl)Gly]-NH2)	% of injected dose remaining in liver	47.20
CCCCCCCCCCCC(=O)OCCCN(CC(=O)N(CC(=O)N(CC(=O)N(CCCOC(=O)CCCCCCCCCCC)CC(=O)N(CC(=O)N(CC(N)=O)CC(CC)CCCC)CC(CC)CCCC)CC(CC)CCCC)CC(CC)CCCC)C(=O)CNC(CO)CO (stereo not shown) [Compound 51] (H-[N(CH(CH2OH)2)Gly][N(3-lauroyloxypropyl)Gly][N(2-ethylhexyl)Gly][N(2-ethylhexyl)Gly][N(3-lauroyloxypropyl)Gly][N(2-ethylhexyl)Gly][N(2-ethylhexyl)Gly]-NH2)	% of injected dose remaining in liver	16.40
CCCCCCCCCCCC(=O)OCCN(CC(=O)N(CCOC(=O)CCCCCCCCCCC)CC(=O)N(CC(=O)N(CCOC(=O)CCCCCCCCCCC)CC(=O)N(CCOC(=O)CCCCCCCCCCC)CC(=O)N(CC(N)=O)CC(CC)CCCC)CC(CC)CCCC)C(=O)CN(C=O)CCCN1CCOCC1 (stereo not shown)	% of injected dose remaining in liver	14.67

Can you look up the measured % of injected dose remaining in liver of CCCCCCCCCC(=O)OCCCN(CC(=O)N(CC(=O)N(CC(=O)N(CCCOC(=O)CCCCCCCCC)CC(=O)N(CC(N)=O)CC(CC)CCCC)CC(CC)CCCC)CC(CC)CCCC)C(=O)CN(CC(CC)CCCC)C(=O)CNC(CO)CO (stereo not shown) [Compound 5] (H-[N(CH(CH2OH)2)Gly][N(2-ethylhexyl)Gly][Gly(N-(3-decanoyloxypropyl))][N(2-ethylhexyl)Gly][N(2-ethylhexyl)Gly][Gly(N-(3-decanoyloxypropyl))][N(2-ethylhexyl)Gly]-NH2) for me?
14.71

Can you look up the measured % of injected dose remaining in liver of CCCCCCCC(=O)OCCCN(CC(=O)N(CC(=O)N(CC(=O)N(CCCOC(=O)CCCCCCC)CC(=O)N(CC(N)=O)CC(CC)CCCC)CC(CC)CCCC)CC(CC)CCCC)C(=O)CN(CC(CC)CCCC)C(=O)CNC(CO)CO (stereo not shown) [Compound 4] (H-[N(CH(CH2OH)2)Gly][N(2-ethylhexyl)Gly][Gly(N-(CH2)3O-octanoyl)][N(2-ethylhexyl)Gly][N(2-ethylhexyl)Gly][Gly(N-(CH2)3O-octanoyl)][N(2-ethylhexyl)Gly]-NH2) for me?
5.98
